- procedureText: Determination of peptide hydrophobicity with RP-HPLC (adjusted retention time)
- Type: physicochemical
- testParameters: Table 3; adjusted retention time as hydrophobicity; RP-HPLC C18, linear 10–55% acetonitrile over 60 min, 0.1% TFA, 25.0 °C, UV 214 nm, triplicate
Residues, ends and D or L forms follow the SMILES beside them.
measurementLabel: tR’ (min)

compound: CCCCCCCCCCCCCC(=O)N[C@@H](CC(C)C)C(=O)N[C@@H](CCCNC(=N)N)C(=O)N[C@@H](CCCNC(=N)N)C(N)=O [compound 46, C14-LRR-NH2] (HELM PEPTIDE1{[CCCCCCCCCCCCCC(=O)[*:2]].L.R.R.[am]}$$$$V2.0)
measurementLabel: tR’
quantitativeReadout: 46.44
//
compound: CCCCCCCCCCCCCCCCCC(=O)N[C@@H](CCCNC(=N)N)C(=O)N[C@@H](CCCNC(=N)N)C(N)=O [compound 6, C18-RR-NH2, reference compound] (HELM PEPTIDE1{[CCCCCCCCCCCCCCCCCC(=O)[*:2]].R.R.[am]}$$$$V2.0)
measurementLabel: tR’
quantitativeReadout: 53.39
//
compound: CCCCCCCCCCCCCC(=O)N[C@H](C(=O)N[C@@H](CCCNC(=N)N)C(=O)N[C@@H](CCCNC(=N)N)C(N)=O)[C@@H](C)CC [compound 38, C14-IRR-NH2] (HELM PEPTIDE1{[CCCCCCCCCCCCCC(=O)[*:2]].I.R.R.[am]}$$$$V2.0)
measurementLabel: tR’
quantitativeReadout: 45.65
//
compound: CCCCCCCCCCCCCC(=O)N[C@@H](CCCCN)C(=O)N[C@@H](CCCNC(=N)N)C(=O)N[C@@H](CCCNC(=N)N)C(N)=O [compound 42, C14-KRR-NH2] (HELM PEPTIDE1{[CCCCCCCCCCCCCC(=O)[*:2]].K.R.R.[am]}$$$$V2.0)
measurementLabel: tR’
quantitativeReadout: 35.66
//
compound: CCCCCCCCCCCCCC(=O)N[C@@H](CCCNC(=N)N)C(=O)N[C@@H](CCCNC(=N)N)C(N)=O [compound 4, C14-RR-NH2, reference compound] (HELM PEPTIDE1{[CCCCCCCCCCCCCC(=O)[*:2]].R.R.[am]}$$$$V2.0)
measurementLabel: tR’
quantitativeReadout: 39.79

* * *

- Tested on: K. pneumoniae ATCC 700603
- Format: cell-based, Klebsiella pneumoniae
- testParameters: ATCC 700603, 18 h
- Protocol: The Acinetobacter baumannii ATCC BAA-1605, Candida albicans ATCC 10231, Enterococcus faecium ATCC 700221, Klebsiella aerogenes ATCC 13048 (previously known as Enterobacter aerogenes), Klebsiella pneumoniae ATCC 700603, Pseudomonas aeruginosa ATCC 9027, Staphylococcus aureus ATCC 25923 and MRSA ATCC 33591, were acquired from the American Type Culture Collection (ATCC). […] The MICs were determined by broth microdilution method according to the Clinical and Laboratory Standard Institute guidelines. […]
Residues, ends and D or L forms follow the SMILES beside them.
measurementLabel: MIC K (mg/L)

compound: CCCCCCCCCCCCCC(=O)N[C@@H](Cc1c[nH]cn1)C(=O)N[C@@H](CCCNC(=N)N)C(=O)N[C@@H](CCCNC(=N)N)C(N)=O [compound 34, C14-HRR-NH2] (HELM PEPTIDE1{[CCCCCCCCCCCCCC(=O)[*:2]].H.R.R.[am]}$$$$V2.0)
MIC K, mg/L: 256

1. CCCCCCCCCCCC(=O)N[C@H](C(=O)N[C@@H](CCCNC(=N)N)C(=O)N[C@@H](CCCNC(=N)N)C(N)=O)[C@@H](C)CC [compound 37, C12-IRR-NH2] (HELM PEPTIDE1{[CCCCCCCCCCCC(=O)[*:2]].I.R.R.[am]}$$$$V2.0)
2. CCCCCCCCCCCCCC(=O)N[C@@H](CCCNC(=N)N)C(=O)N[C@@H](CCCNC(=N)N)C(=O)N[C@@H](CCCNC(=N)N)C(N)=O [compound 82, C14-RRR-NH2] (HELM PEPTIDE1{[CCCCCCCCCCCCCC(=O)[*:2]].R.R.R.[am]}$$$$V2.0)
Problem: I'd appreciate it if you could identify which of 1 and 2 has the greater MIC K. Indicate which entry you chose by stating its label.
Result: 1
(1: 256 mg/L, 2: 128 mg/L)

* * *

- Test system: human red blood cells (hRBCs)
- Assay type: cell-based
- testParameters: red cells of human, 1 h
Residues, ends and D or L forms follow the SMILES beside them.
measurementLabel: HC50

Problem: Item under review: CCCCCCCCCCCCCCCC(=O)N[C@@H](CCCNC(=N)N)C(=O)N[C@@H](CCCNC(=N)N)C(N)=O [compound 5, C16-RR-NH2, reference compound] (HELM PEPTIDE1{[CCCCCCCCCCCCCCCC(=O)[*:2]].R.R.[am]}$$$$V2.0) . Reported HC50?
Result: 22.91 (±1.18) µg/mL

Problem: Please answer likewise for CCCCCCCCCCCCCC(=O)N[C@H](C(=O)N[C@@H](CCCNC(=N)N)C(=O)N[C@@H](CCCNC(=N)N)C(N)=O)C(C)C [compound 94, C14-VRR-NH2] (HELM PEPTIDE1{[CCCCCCCCCCCCCC(=O)[*:2]].V.R.R.[am]}$$$$V2.0)
Result: 30.73 (±0.41) µg/mL

* * *

- Test system: human red blood cells (hRBCs)
- Format: cell-based
- testParameters: red cells of human, 1 h
Residues, ends and D or L forms follow the SMILES beside them.
In this section, each of the compounds is paired with its reported HC50.

A selection of reference data follows.
compound: CCCCCCCCCCCCCC(=O)N[C@@H](CCCC)C(=O)N[C@@H](CCCNC(=N)N)C(=O)N[C@@H](CCCNC(=N)N)C(N)=O [compound 66, C14-NleRR-NH2] (HELM PEPTIDE1{[CCCCCCCCCCCCCC(=O)[*:2]].[Nle].R.R.[am]}$$$$V2.0)
HC50: 37.54 (±1.39) µg/mL
//
compound: CCCCCCCCCCCC(=O)N1CCC[C@H]1C(=O)N[C@@H](CCCNC(=N)N)C(=O)N[C@@H](CCCNC(=N)N)C(N)=O
HC50: >256 µg/mL
//
compound: CCCCCCCCCC(=O)N[C@@H](Cc1c[nH]c2ccccc12)C(=O)N[C@@H](CCCNC(=N)N)C(=O)N[C@@H](CCCNC(=N)N)C(N)=O [compound 96, C10-WRR-NH2] (HELM PEPTIDE1{[CCCCCCCCCC(=O)[*:2]].W.R.R.[am]}$$$$V2.0)
HC50: >256 µg/mL

Lab note: next compound to report on.
Problem: Item under review: CCCCCCCCCCCC(=O)N[C@@H](Cc1c[nH]c2ccccc12)C(=O)N[C@@H](CCCNC(=N)N)C(=O)N[C@@H](CCCNC(=N)N)C(N)=O [compound 97, C12-WRR-NH2] (HELM PEPTIDE1{[CCCCCCCCCCCC(=O)[*:2]].W.R.R.[am]}$$$$V2.0) . Reported HC50?
Result: 42.42 (±0.57) µg/mL

* * *

- procedureText: Determination of peptide hydrophobicity with RP-HPLC (adjusted retention time)
- Format: physicochemical
- testParameters: Table 2; nC = carbon atoms in fatty acid chain; RP-HPLC C18, linear 10–55% acetonitrile over 60 min, 0.1% TFA, 25.0 °C, UV 214 nm, triplicate
Residues, ends and D or L forms follow the SMILES beside them.
measurementLabel: Adjusted retention time (min)

compound: CCCCCCCCCCCCCC(=O)N[C@@H](CCCC)C(=O)N[C@@H](CCCNC(=N)N)C(=O)N[C@@H](CCCNC(=N)N)C(N)=O [compound 66, C14-NleRR-NH2] (HELM PEPTIDE1{[CCCCCCCCCCCCCC(=O)[*:2]].[Nle].R.R.[am]}$$$$V2.0)
measurementLabel: Adjusted retention time
endpointUnit: min
quantitativeReadout: 46.681
//
compound: CCCCCCCC(=O)N[C@@H](CCCC)C(=O)N[C@@H](CCCNC(=N)N)C(=O)N[C@@H](CCCNC(=N)N)C(N)=O [compound 63, C8-NleRR-NH2] (HELM PEPTIDE1{[CCCCCCCC(=O)[*:2]].[Nle].R.R.[am]}$$$$V2.0)
measurementLabel: Adjusted retention time
endpointUnit: min
quantitativeReadout: 25.429
//
compound: CCCCCCCCCCCC(=O)N[C@H](C(=O)N[C@@H](CCCNC(=N)N)C(=O)N[C@@H](CCCNC(=N)N)C(N)=O)[C@@H](C)CC [compound 37, C12-IRR-NH2] (HELM PEPTIDE1{[CCCCCCCCCCCC(=O)[*:2]].I.R.R.[am]}$$$$V2.0)
measurementLabel: Adjusted retention time
endpointUnit: min
quantitativeReadout: 39.047
//
compound: CCCCCCCCCC(=O)N[C@@H](CCCC)C(=O)N[C@@H](CCCNC(=N)N)C(=O)N[C@@H](CCCNC(=N)N)C(N)=O [compound 64, C10-NleRR-NH2] (HELM PEPTIDE1{[CCCCCCCCCC(=O)[*:2]].[Nle].R.R.[am]}$$$$V2.0)
measurementLabel: Adjusted retention time
endpointUnit: min
quantitativeReadout: 33.155
